- Test system: BT-549 breast
- testSummary: NCI tumour cell line growth inhibition, 48 h
parameterMeasured: TGI

Q: Endpoint output: TGI of CC(C)N(CCCNc1c2ccccc2nc2cccc([N+](=O)[O-])c12)C(C)C . Value?
A: < 0.0442 µM

Q: Lookup CCCCCCOC(=O)C(N)Cc1ccc(OC)cc1 (stereo not given)
A: > 100 µM

Q: Lookup COC(=O)c1c(O)ccc2c1c1c(n2Cc2ccccn2)C(=O)c2ccccc2C1
A: > 100 µM

Q: Lookup CC(=O)O[C@@]12[C@@H]3O[C@@]4(O)C[C@]5(C)[C@H]6C[C@@](C(C)C)(O[C@H]5c5ccoc5)O[C@H]1[C@]6(C4)O[C@]2(O)C(C)=CC3(C)C
A: > 100 µM

Q: Lookup Cn1c(=O)c2[nH]c(/N=N\n3ccc4ccccc43)nc2n(C)c1=O
A: > 100 µM

====

Please provide measured TGI for the entries that follow.
- Tested on: HOP-92 NSCLC
- testSummary: NCI tumour cell line growth inhibition, 48 h

Q: Endpoint output: TGI of CN(C)C(=O)c1nnsc1NN=O . Value?
A: > 100 µM

Q: Lookup OCC1C(O)C(O)[C@@H]2SCCN12 (some centres undefined)
A: > 100 µM

Q: Lookup CC(=O)c1cc2c3c(c1)c1cc4c(cc1c(=O)n3CC2)OCO4
A: > 100 µM

Q: Lookup NC(CCc1ccccc1)(C(=O)O)c1ccccc1 (centres undefined)
A: > 100 µM

Q: Lookup O=C(O)c1ccc([N+](=O)[O-])c(P(=O)(O)O)c1
A: > 100 µM

Q: Lookup Cc1ccc(/C=C/C(=O)c2sc(C(N)=S)nc2C)cc1
A: > 100 µM

Q: Lookup O=[N+]([O-])c1ccccc1S(=O)(=O)c1ccccc1[N+](=O)[O-]
A: 91.4 µM

Q: Lookup CCC(C#N)N(Cc1ccc(CN(C(=O)c2ccccc2)C(C#N)CC)cc1)C(=O)c1ccccc1 (centres undefined)
A: 35.3 µM

Q: Lookup N#CC(NC12CC3CC(CC(C3)C1)C2)c1ccccc1 (centres undefined)
A: > 100 µM

Q: Lookup CCN(CC)C(=O)C1=C(C)NC(C)=C(C(=O)N(CC)CC)C1
A: > 100 µM

Q: Lookup CC(=O)OCC1OC(O[C@@H]2C[C@H]3C(C)(C)[C@H](OC(C)=O)CC[C@]3(C)[C@H]3CC[C@@]45C[C@H](O)C[C@H](C)[C@@H]4CC=C5[C@@]32C)C(O)C(O)C1O (some centres undefined)
A: 15 µM

Q: Lookup Cc1oncc1C(=O)Nc1ccc(C(F)(F)F)cc1
A: 46 µM

Q: Lookup CCc1ccc(/C(C#N)=C/C=C/c2ccccc2)cc1
A: 78.8 µM

Q: Lookup COc1cc(C2=Nc3c/c(=C\c4c(O)[nH]c5ccc(Cl)cc45)ccc3=N2)cc(OC)c1OC
A: 6.35 µM

Q: Lookup O=[N+]([O-])c1ccc(Oc2cccnc2)c([N+](=O)[O-])c1
A: 13 µM

Q: Lookup C/C(Sc1ccccc1)=C1/CCCN(Cc2ccccc2)C1
A: 51.9 µM

Q: Lookup CCCCCCCCCCCCCCCCc1c(C(=O)OC)[nH]c(=S)[nH]c1=O
A: 41 µM

Q: Lookup CCCCCCCCCCCCCCCCCC(=O)[O][Sn]([CH2]CCC)([CH2]CCC)[CH2]CCC
A: 0.273 µM

Q: Lookup Cc1cc2c(cc1C)C(=O)c1ncccc1C2=O
A: > 100 µM

====

- System: RPMI-8226 leukemia
- testSummary: NCI tumour cell line growth inhibition, 48 h
parameterMeasured: TGI

Q: Endpoint output: TGI of C[C@@]12C[C@@H](c3ccccc3O1)N1CCSC1=N2 . Value?
A: > 100 µM

Q: Lookup C=CC[Se]C(=O)c1ccccc1OC(C)=O
A: 5.71 µM

Q: Lookup CNC(=O)c1cc(Oc2ccc3nc(NC(=O)c4cc(C(F)(F)F)cc(C(F)(F)F)c4)sc3c2)ccn1
A: > 100 µM

Q: Lookup CSc1c(C#N)c(O)n(-c2ccc(Cl)cc2)c(=O)c1C#N
A: > 100 µM

Q: Lookup O=S1c2ccccc2N=C(c2ccc3ccccc3c2)CC1c1ccccc1 (stereo not drawn)
A: 94.4 µM

Q: Lookup COc1ccc(NC(=O)CSc2nnc(Cc3ccccc3)o2)cc1
A: > 100 µM

Q: Lookup O=C1CCCCC1C1(O)C(=O)Nc2cc(F)ccc21 (stereo not drawn)
A: > 100 µM

Q: Lookup Nc1sccc1S(=O)(=O)c1ccsc1N
A: > 100 µM

====

- Test system: UACC-62 melanoma
- testSummary: NCI tumour cell line growth inhibition, 48 h
parameterMeasured: TGI

Q: So what TGI did NC(N)=NS(=O)(=O)c1ccc(Nc2c3ccccc3nc3c(C(=O)N4CCN(CCO)CC4)ccc(Cl)c23)cc1 get with UACC-62 melanoma?
A: > 100 µM

Q: Lookup N#Cc1cc2c(n(C3OC(CO)C(O)C(O)C3O)c1=S)CCCCC2 (stereo not drawn)
A: > 100 µM

Q: Lookup CCC(C)[C@H]1C(=O)N=C(N)N1C(=O)OCc1ccccc1 (stereo partly drawn)
A: > 100 µM

====

Please provide measured TGI for the entries that follow.
- System: SNB-19 CNS
- testSummary: NCI tumour cell line growth inhibition, 48 h

Q: Endpoint output: TGI of O=C(N/N=C\c1ccc([N+](=O)[O-])cc1)Nc1ccccc1 . Value?
A: > 100 µM

Q: Lookup NC(Cc1cc(Br)c(O)c(Br)c1)C(=O)O (stereo unspecified)
A: > 100 µM

Q: Lookup O=C(/C=C/c1ccccc1O)c1ccccc1
A: 25.3 µM

Q: Lookup CNC(=S)NNC(=O)c1c(C)nc2sccn12
A: > 100 µM

Q: Lookup O=C(CSc1nc2ccc(Cl)cc2c(=O)n1-c1ccccc1)N=Nc1c(O)[nH]c2ccc(F)cc12
A: 10.5 µM

Q: Lookup Fc1cc(C2=C[C@H](c3ccc4c(c3)OCO4)NC(=S)N2)c(Cl)cc1Cl
A: > 100 µM

====

- Test system: EKVX NSCLC
- testSummary: NCI tumour cell line growth inhibition, 48 h
parameterMeasured: TGI

Q: Endpoint output: TGI of COC(=O)C1C2CC3C(OC(=O)C31)C2I (configuration not stated) . Value?
A: > 100 µM

Q: Lookup COC(=O)C1C(=O)O[C@@H](c2ccc(OC)cc2)C1C(=O)OC (some centres not stated)
A: > 100 µM

Q: Lookup COc1cccc(/C=N/[N-]C(N)=O)c1[O-].[Cu+2].[OH3+].c1cnc2c(c1)ccc1cccnc12
A: 34.4 µM

Q: Lookup CC(=O)N(/N=C\c1ccc([N+](=O)[O-])cc1)c1ccccc1
A: > 100 µM

Q: Lookup O=c1oc2c(Br)c(O)c(Br)cc2c2ccccc12
A: 67.4 µM

Q: Lookup C[C@H](Nc1ccc(C#N)n(C)c1=O)c1cc2cc(Cl)ccc2[nH]c1=O
A: > 100 µM

Q: Lookup COc1cccc(N=N/C(=N/NC(=O)c2cc(Cl)ccc2O)c2ccc(N(CCC#N)CCC#N)cc2C)c1
A: > 100 µM

====

- System: NCI-H226 lung
- testSummary: NCI tumour cell line growth inhibition, 48 h
Please provide measured GI50 for the entries that follow.

Q: Endpoint output: GI50 of COc1ccc(Nc2nc(NCc3ccccc3)c3ccccc3n2)cc1 . Value?
A: 11.5 µM

Q: Lookup Cc1cc(N2CCOCC2)nc(N(CCNc2ccnc3cc(Cl)ccc23)Cc2ccco2)n1
A: 3.78 µM

Q: Lookup COC(=O)C1=C2C3=C(C(=O)c4ccccc4C3=O)N(Cc3ccccc3)C2(OC(C)=O)C=CC1=O (stereo not given)
A: 11.6 µM

Q: Lookup CCOc1ccc(/C=N/Nc2cc(C)nc3ccc(Cl)cc23)cc1
A: 1.85 µM

Q: Lookup C[CH2][Sn]1([CH2]C)[O]C2C(O)OC(CO)C(O)C2[O]1 (stereo not given)
A: 13.2 µM

====

- Test system: NCI/ADR-RES ovarian
- testSummary: NCI tumour cell line growth inhibition, 48 h
parameterMeasured: TGI

Q: Endpoint output: TGI of Cc1cc2c(cc1C)C(=O)c1ncccc1C2=O . Value?
A: 70.8 µM

Q: Lookup C[C@]1(O)CC(=O)c2c(c(-c3ccc4cc5c(c(O)c4c3O)C(=O)C[C@@](C)(O)C5)c3cccc(O)c3c2O)C1
A: 25.4 µM

Q: Lookup Oc1ccc(Cl)cc1Cc1cc(Cl)cc(Cc2cc(Cl)ccc2O)c1O
A: 6.82 µM

Q: Lookup NC(CCc1ccccc1)(C(=O)O)c1ccccc1 (centres undefined)
A: > 100 µM

====

Please provide measured TGI for the entries that follow.
- System: ACHN renal
- testSummary: NCI tumour cell line growth inhibition, 48 h

Q: Endpoint output: TGI of CCC(C#N)N(Cc1ccc(CN(C(=O)c2ccccc2)C(C#N)CC)cc1)C(=O)c1ccccc1 (stereo not drawn) . Value?
A: > 100 µM

Q: Lookup Nc1nc(N)nc(-c2cnc3ccccc3c2)n1
A: > 100 µM

Q: Lookup NCCCCN
A: > 100 µM
